Documented h-poly-IgG Bound (%) across a set of compounds
System: human poly-IgG (h-poly-IgG)
assay.summary: Microtiter plate chromatography of resins, human poly-IgG (bound, yield)
Assay type: binding
Use % as the unit, but write only the number.

Here is how some compounds turned out for h-poly-IgG Bound (%).
COc1ccc(NC(=O)c2cn3ccsc3n2)cc1C(=O)NCCCC[C@H](NC(=O)c1cc(NC(=O)c2cn3ccsc3n2)ccc1OC)C(=O)NCCCN    88
NCCCNC(=O)c1cccc(C(=O)Nc2cc(-c3ccco3)[nH]n2)c1    54
COc1ccc(NC(=O)c2cn3ccccc3n2)cc1C(=O)NCCCN    53
Cn1nc(C(=O)Nc2cccc(C(=O)NCCCN)c2)cc1-c1ccco1    91
COc1ccc(NC(=O)c2cncc(-c3ccccc3)c2)cc1C(=O)NCCCN    89

What h-poly-IgG Bound (%) appears in the records for this compound with human poly-IgG (h-poly-IgG)? `Cc1c(NC(=O)c2cc(-c3cccs3)n(C)n2)cccc1C(=O)NCCCN`
65

What h-poly-IgG Bound (%) appears in the records for this compound with human poly-IgG (h-poly-IgG)? `COc1ccc(NC(=O)c2cncc(-c3cccs3)c2)cc1C(=O)NCCCN`
97

What h-poly-IgG Bound (%) appears in the records for this compound with human poly-IgG (h-poly-IgG)? `COc1ccc(NC(=O)c2cc(-c3ccccc3)n(C)n2)cc1C(=O)NCCCN`
98

What h-poly-IgG Bound (%) appears in the records for this compound with human poly-IgG (h-poly-IgG)? `COc1ccc(NC(=O)c2cncc(-c3ccoc3)c2)cc1C(=O)NCCCN`
63

What h-poly-IgG Bound (%) appears in the records for this compound with human poly-IgG (h-poly-IgG)? `COc1ccc(NC(=O)c2cc(-c3ccco3)n(C)n2)cc1C(=O)N(C)CCCN`
58

What h-poly-IgG Bound (%) appears in the records for this compound with human poly-IgG (h-poly-IgG)? `COc1ccc(NC(=O)c2nn(CCO)c3ccccc23)cc1C(=O)NCCCN`
71

What h-poly-IgG Bound (%) appears in the records for this compound with human poly-IgG (h-poly-IgG)? `COc1ccc(-c2noc(C(=O)Nc3ccc(OC)c(C(=O)NCCCN)c3)n2)cc1`
100

What h-poly-IgG Bound (%) appears in the records for this compound with human poly-IgG (h-poly-IgG)? `COc1ccc(NC(=O)c2cn3ccsc3n2)cc1C(=O)NCCCNC(=O)CC[C@H](N)C(=O)NCCCNC(=O)c1cc(NC(=O)c2cn3ccsc3n2)ccc1OC`
100

What h-poly-IgG Bound (%) appears in the records for this compound with human poly-IgG (h-poly-IgG)? `COc1ccc(NC(=O)c2cn3ccsc3n2)cc1C(=O)NCCCN`
94

What h-poly-IgG Bound (%) appears in the records for this compound with human poly-IgG (h-poly-IgG)? `COc1ccc(NC(=O)c2occ3ccccc23)cc1C(=O)NCCCN`
95

What h-poly-IgG Bound (%) appears in the records for this compound with human poly-IgG (h-poly-IgG)? `COc1ccc(NC(=O)c2cncc(-c3ccc(C(F)(F)F)cc3)c2)cc1C(=O)NCCCN`
68

What h-poly-IgG Bound (%) appears in the records for this compound with human poly-IgG (h-poly-IgG)? `COc1ccc(NC(=O)c2cc(-c3ccco3)on2)cc1C(=O)NCCCN`
100
